assay: Acute toxicity (LD50), ICR-JCL female mice, Litchfield-Wilcoxon graph method; conditions: mouse, in vivo, ip, one dose, in olive oil, after 7 days
Kindly supply the reported log10 of LD50 at 168 h values for the records listed here.
Recorded LD50 at 168 h (log10, mg/kg)

Look at this compound and give its reported log10 of LD50 at 168 h. `C[C@]12CC[C@@H]3c4ccc(OC(=O)c5ccccc5)cc4CC[C@H]3[C@@H]1CC[C@@H]2OC(=O)Cn1cc(F)c(=O)[nH]c1=O`
2.83

Dear colleague, I am looking for the recorded log10 of LD50 at 168 h of the following compound: `CC(=O)Oc1ccc2c(c1)CC[C@@H]1[C@@H]2CC[C@]2(C)[C@@H](OC(=O)Cn3cc(F)c(=O)[nH]c3=O)CC[C@@H]12`
2.90

Consider the compound `COc1cccc2c1C(=O)c1c(O)c3c(c(O)c1C2=O)C[C@@](O)(C(C)=O)C[C@@H]3O[C@H]1C[C@H](N)[C@H](O)[C@H](C)O1` and give its measured log10 of LD50 at 168 h.
0.70

Give its log10 of LD50 at 168 h value. Item: O=c1[nH]cc(F)c(=O)[nH]1 [Test No. 8 (Table 17), 5-fluoro-2,4-dioxo-pyrimidine, reference compound]
2.38

Find the recorded log10 of LD50 at 168 h belonging to `N[C@@H](Cc1ccc(N(CCCl)CCCl)cc1)C(=O)O` and report it.
0.79
